These entries and their values trace back to paper PMC4104500.

Molecular target: T1, Human wild type CIB1 (calcium and integrin binding protein 1) (human, UniProt Q99828 1-191)
T1 sequence (looked up): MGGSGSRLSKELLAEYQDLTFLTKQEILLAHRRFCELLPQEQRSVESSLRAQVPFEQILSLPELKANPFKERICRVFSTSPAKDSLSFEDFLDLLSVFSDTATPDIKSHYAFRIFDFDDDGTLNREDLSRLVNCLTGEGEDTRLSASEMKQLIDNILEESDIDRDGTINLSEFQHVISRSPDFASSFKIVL
Assay: ITC

Binder | dH / kcal/mol
integrin αL cytoplasmic tail (CT) peptide (peptide) IFIVLYKVGFFKRNLKEKMEAGRGVPNGIPAEDSEQLASGQEAGDPGCLKPLHEKDSESGGGKD | 1.96
LVFVMYRMGFFKRVRPPQEEQEREQLQPHENGEGNSET [integrin αV cytoplasmic tail (CT) peptide, wild type] | 1.74
LIYILYKLGFFKRSLPYGTAMEKAQLKPPATSDA [integrin α5 cytoplasmic tail (CT) peptide] | 5.11
IILLLWKCGFFKRARTRALYEAKRQKAEMKSQPSETERLTDDY [integrin α3 cytoplasmic tail (CT) peptide] | 1
